# system: Fuc(a1-2)Gal(b1-4)[Fuc(a1-3)]GlcNAc(b1-3)[Neu5Ac(a2-6)Gal(b1-4)GlcNAc(b1-6)]Gal(b1-4)Glc
# protocol.notes: glycan array binding signal (z-score within array); higher = stronger binding
# test.settings: glycan notation: IUPAC condensed, linker removed
This excerpt belongs to a sample that is enriched for the strongest signals.
Listed below: glycan array binding signal (z-score) values for each entry.
measurement.type: glycan array binding signal (z-score)

| binder | experimental.result |
| --- | --- |
| Fm1D (Escherichia coli) (protein) FSCNVDGGSSIGAGTTSVYVNLDPVIQPGQNLVVDLSQHISCWNDYGGWYDTDHINLVQGSAFAGSLQSYKGSLYWNNVTYPFPLTTNTNVLDIGDKTPMPLPLKLYITPVGAAGGVVIKAGEVIARIHMYKIATLGSGNPRNFTWNIISNNSVVMPTHHHHHH | -0.143 |
| F17-L (Escherichia coli) (protein) GPDDYVPSQIAVNTSTLPGVVIGPADAHTYPRVIGELAGTSNQYVFNGGAIALMRGKFTPALPKIGSITYTFHQGNSRDSSDFDIYDIGVSGLGIIIGMAGYWPATPLVPINSSGIYIDPVGANTNPNTYNGATASFGARLFVAFVATGRLPNGYITIPTRQLGTILLEAKRTSLNNKGLTAPVMLNGGRIQVQSQTHHHHHH | -0.136 |
| Epa15 (Candida glabrata) (protein) MGSSHHHHHHSSGLVPRGSHMASDPTTFPLGCSPEFTKTKKGLSMELYRYDYLPPGSYPCWDSAYLNPSYPRTGYKAKKLIATVDGVSGDINFKFNPKFGCKAIPDYLPSNFNYHEPITITNFTMILYGYFMPKTTAFHTFYVTADDLLFMNFGAGNAFDCCRREETADKFGNYAAYSVWGKKSLKNELTVYLHTGVYYPIRLFYNNRDYIAQLDIRFKTEHSNAIITNFTDYFYSVDDSSLGCPGLI | -0.092 |
